- SYSTEM_NAME: Factor XIa (Homo sapiens)
- EXPERIMENT_DESCRIPTION: Factor XIa inhibition assay utilizing a fluorophore-quencher pair peptide substrate (FLINT)
- Assay type: biochemical
- APPLIED_CONDITIONS: 30 min preincubation, 5Fam-KLTRAETV-K5Tamra substrate 15 μM final, kinetic reads; read-out: FXIa IC50
pIC50: −log10 of the molar value.
pIC50 for assorted molecules

MOLECULE: COC(=O)Nc1ccc(-c2cnc(C(CC3CC3)n3cc4c(cc3=O)-c3c(ccc(Cl)c3F)CC3(CC3)NC4=O)[nH]2)cc1 (single isomer, unassigned) [Compound 62]
SYSTEM_NAME: Factor XIa (Homo sapiens)
pIC50: 7.31

MOLECULE: Nc1ccc(-c2cnc([C@H]3CCc4c5c(cc(=O)n43)-c3c(ccc(Cl)c3F)CC3(CC3)N(CCO)C5=O)[nH]2)c(F)n1 (single isomer, unassigned) [Compound 12]
SYSTEM_NAME: Factor XIa (Homo sapiens)
pIC50: 7.16

MOLECULE: O=C1NC2(CC2)Cc2ccc(Cl)c(F)c2-c2cc(=O)n(C(CC3CC3)c3ncc(-c4cc[n+]([O-])cc4)[nH]3)cc21 (single isomer, unassigned) [Compound 56]
SYSTEM_NAME: Factor XIa (Homo sapiens)
pIC50: 6.05

###

- SYSTEM_NAME: Factor XIa (Homo sapiens, UniProt P03951)
- Sequence (P03951 388-625 limits assumed): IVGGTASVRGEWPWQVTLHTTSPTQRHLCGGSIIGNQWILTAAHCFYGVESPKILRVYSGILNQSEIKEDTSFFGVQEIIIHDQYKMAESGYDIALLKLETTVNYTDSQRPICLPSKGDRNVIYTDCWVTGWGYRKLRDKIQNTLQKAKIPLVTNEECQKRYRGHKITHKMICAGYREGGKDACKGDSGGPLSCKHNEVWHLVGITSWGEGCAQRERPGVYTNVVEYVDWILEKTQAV
- Sequence (P03951 19-387 partner limits assumed): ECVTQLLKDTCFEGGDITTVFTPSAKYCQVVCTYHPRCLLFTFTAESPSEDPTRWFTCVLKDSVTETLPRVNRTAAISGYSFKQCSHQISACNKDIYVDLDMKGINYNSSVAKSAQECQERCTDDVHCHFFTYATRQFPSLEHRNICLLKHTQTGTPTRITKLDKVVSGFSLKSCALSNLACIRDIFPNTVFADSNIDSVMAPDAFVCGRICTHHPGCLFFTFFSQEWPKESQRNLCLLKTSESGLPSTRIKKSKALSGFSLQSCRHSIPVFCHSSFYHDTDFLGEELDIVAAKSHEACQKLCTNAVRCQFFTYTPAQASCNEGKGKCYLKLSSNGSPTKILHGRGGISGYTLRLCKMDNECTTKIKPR
- EXPERIMENT_DESCRIPTION: Factor XIa inhibition assay utilizing a fluorophore-quencher pair peptide substrate (FLINT)
- Format: biochemical
- APPLIED_CONDITIONS: read-out: FXIa Ki

COMPOUND: Cn1cc(-c2cnc(C(CC3CC3)n3cc4c(cc3=O)-c3c(ccc(Cl)c3F)CC3(CC3)NC4=O)[nH]2)ccc1=O (single isomer, unassigned) [Compound 63]
Ki, nM: 578

COMPOUND: O=C1NC2(CC2)Cc2ccc(Cl)c(F)c2-c2cc(=O)n3c(c21)CC[C@H]3c1ncc(-c2ccc3[nH]ccc3c2)[nH]1 (single isomer, unassigned) [Compound 13]
Ki, nM: 1

COMPOUND: O=C1NC2(CC2)Cc2ccc(Cl)c(F)c2-c2cc(=O)n3c(c21)CC[C@@H]3c1ncc(-c2ccc3snnc3c2)[nH]1 (stereo in doubt) [Compound 30]
Ki, nM: 2.9

COMPOUND: Nc1ccc(-c2[nH]c(C3CCc4c5c(cc(=O)n43)-c3cc(Cl)ccc3CC3(CC3)NC5=O)nc2F)c(F)n1 (stereo not shown) [Compound 1]
Ki, nM: 0.8

COMPOUND: Nc1ccc(-c2cnc([C@H]3CCc4c5c(cc(=O)n43)-c3c(ccc(Cl)c3F)CC3(CC3)N(CCO)C5=O)[nH]2)c(F)n1 (single isomer, unassigned) [Compound 10]
Ki, nM: 926

COMPOUND: Nc1ccc(-c2cnc([C@H]3CCc4c5c(cc(=O)n43)-c3c(ccc(Cl)c3F)CCNC5=O)[nH]2)c(Cl)n1 (stereo in doubt) [Compound 48]
Ki, nM: 1.2

COMPOUND: Cc1nc2cc(-c3cnc([C@H]4CCc5c6c(cc(=O)n54)-c4c(ccc(Cl)c4F)CC4(CC4)NC6=O)[nH]3)ccc2s1 (stereo in doubt) [Compound 5]
Ki, nM: 1

COMPOUND: Nc1ccc(-c2cnc([C@H]3CCc4c5c(cc(=O)n43)-c3c(ccc(Cl)c3F)CC3(CC3)NC5=O)[nH]2)c(F)n1 (stereo in doubt) [Compound 54]
Ki, nM: 112

COMPOUND: Nc1ccc(-c2cnc([C@@H]3CCc4c5c(cc(=O)n43)-c3c(ccc(Cl)c3F)CC3(CCC3)NC5=O)[nH]2)c(F)n1 (stereo in doubt) [Compound 32]
Ki, nM: 0.4

COMPOUND: O=C1NC2(CC2)Cc2ccc(Cl)c(F)c2-c2cc(=O)n3c(c21)CC[C@@H]3c1ncc(-c2ccn3ccnc3c2)[nH]1 (stereo in doubt) [Compound 8]
Ki, nM: 0.9

COMPOUND: Cn1ccc(-c2cnc([C@H](CC3CC3)n3cc4c(cc3=O)-c3c(ccc(Cl)c3F)CC3(CC3)NC4=O)[nH]2)cc1=O (single isomer, unassigned) [Compound 69]
Ki, nM: 54.1

COMPOUND: O=C1NC2(CC2)Cc2ccc(Cl)c(F)c2-c2cc(=O)n3c(c21)CC[C@@H]3c1ncc(-c2ccc3[nH]ccc3c2)[nH]1 (single isomer, unassigned) [Compound 17]
Ki, nM: 796

COMPOUND: Nc1ccc(-c2cnc([C@H]3CCc4c5c(cc(=O)n43)-c3c(ccc(Cl)c3F)CC3(CC3)N(CCO)C5=O)[nH]2)c(F)n1 (single isomer, unassigned) [Compound 12]
Ki, nM: 34.6

COMPOUND: Nc1ccc(-c2cnc([C@@H]3CCc4c5c(cc(=O)n43)-c3c(ccc(Cl)c3F)CC3(CC3)N(CCO)C5=O)[nH]2)c(F)n1 (single isomer, unassigned) [Compound 11]
Ki, nM: 588

COMPOUND: CN1C(=O)c2c(cc(=O)n3c2CC[C@H]3c2ncc(-c3ccc(N)nc3F)[nH]2)-c2c(ccc(Cl)c2F)CC12CC2 (stereo in doubt) [Compound 41]
Ki, nM: 4.3

COMPOUND: O=C1NC2(CC2)Cc2ccc(Cl)c(F)c2-c2cc(=O)n3c(c21)CC[C@@H]3c1ncc(-c2ccc3scnc3c2)[nH]1 (stereo in doubt) [Compound 26]
Ki, nM: 0.3

COMPOUND: O=C1NC2(CC2)Cc2ccc(Cl)c(F)c2-c2cc(=O)n3c(c21)CCC3c1ncc(-c2ccnc(CO)c2F)[nH]1 (stereo not shown) [Compound 3]
Ki, nM: 7.6

COMPOUND: O=C1NC2(CC2)Cc2ccc(Cl)c(F)c2-c2cc(=O)n(C(CC3CC3)c3ncc(-c4ccncc4)[nH]3)cc21 (single isomer, unassigned) [Compound 66]
Ki, nM: 91.7

COMPOUND: Cn1nncc1-c1cnc([C@@H]2CCc3c4c(cc(=O)n32)-c2c(ccc(Cl)c2F)CC2(CC2)NC4=O)[nH]1 (stereo in doubt) [Compound 42]
Ki, nM: 464

COMPOUND: O=C1NC2(CC2)Cc2ccc(Cl)c(F)c2-c2cc(=O)n(C(CC3CC3)c3ncc(-c4ccc(F)cc4)[nH]3)cc21 (single isomer, unassigned) [Compound 65]
Ki, nM: 50.8

###

Each entry below carries its recorded pIC50.
- SYSTEM_NAME: Factor XIa (Homo sapiens, UniProt P03951)
- EXPERIMENT_DESCRIPTION: Factor XIa inhibition assay utilizing a fluorophore-quencher pair peptide substrate (FLINT)
- Type: biochemical
- APPLIED_CONDITIONS: 30 min preincubation, 5Fam-KLTRAETV-K5Tamra substrate 15 μM final, kinetic reads; read-out: FXIa IC50
pIC50: −log10 of the molar value.
MEASURE: pIC50

COMPOUND: O=C1NC2(CC2)Cc2ccc(Cl)c(F)c2-c2cc(=O)n(C(CC3CC3)c3ncc(-c4ccc(F)cc4)[nH]3)cc21 (single isomer, unassigned)
SYSTEM_NAME: Factor XIa (Homo sapiens, UniProt P03951)
RECORDED_VALUE: 6.99
//
COMPOUND: O=C1NC2(CC2)Cc2ccc(Cl)c(F)c2-c2cc(=O)n3c(c21)CC[C@@H]3c1ncc(-c2ccc3[nH]ncc3c2)[nH]1 (stereo in doubt)
SYSTEM_NAME: Factor XIa (Homo sapiens, UniProt P03951)
RECORDED_VALUE: 9.00
//
COMPOUND: O=C1NC2(CC2)Cc2ccc(Cl)c(F)c2-c2cc(=O)n3c(c21)CC[C@@H]3c1ncc(-c2ccn3ccnc3c2)[nH]1 (stereo in doubt)
SYSTEM_NAME: Factor XIa (Homo sapiens, UniProt P03951)
RECORDED_VALUE: 8.72
//
COMPOUND: O=C1NC2(CC2)Cc2ccc(Cl)c(F)c2-c2cc(=O)n3c(c21)CC[C@@H]3c1ncc(-c2ccc3snnc3c2)[nH]1 (stereo in doubt)
SYSTEM_NAME: Factor XIa (Homo sapiens, UniProt P03951)
RECORDED_VALUE: 8.24
//
COMPOUND: Nc1ccc(-c2cnc([C@H]3CCc4c5c(cc(=O)n43)-c3c(ccc(Cl)c3F)CC3(CCC3)NC5=O)[nH]2)c(F)n1 (stereo in doubt)
SYSTEM_NAME: Factor XIa (Homo sapiens, UniProt P03951)
RECORDED_VALUE: 6.63
//
COMPOUND: Nc1ccc(-c2cnc([C@@H]3CCc4c5c(cc(=O)n43)-c3c(ccc(Cl)c3F)CC3(CCC3)NC5=O)[nH]2)c(F)n1 (stereo in doubt)
SYSTEM_NAME: Factor XIa (Homo sapiens, UniProt P03951)
RECORDED_VALUE: 9.15

###

Form field: IC50 (one value per entry).
- SYSTEM_NAME: UniProtKB P03951
- EXPERIMENT_DESCRIPTION: Factor XIa inhibition assay utilizing a fluorophore-quencher pair peptide substrate (FLINT)
- Format: biochemical
- APPLIED_CONDITIONS: cells that print μM themselves in the nM column; same assay conditions; read-out: FXIa IC50
MEASURE: IC50

COMPOUND: O=C1NC2(CC2)Cc2ccc(Cl)c(F)c2-c2cc(=O)n3c(c21)CC[C@@H]3c1ncc(-c2ccc3cncn3c2)[nH]1 (stereo in doubt)
RECORDED_VALUE: 5.07 µM

COMPOUND: Cn1nncc1-c1cnc([C@H]2CCc3c4c(cc(=O)n32)-c2c(ccc(Cl)c2F)CC2(CC2)NC4=O)[nH]1 (stereo in doubt)
RECORDED_VALUE: > 10 µM

COMPOUND: O=C1NC2(CC2)Cc2ccc(Cl)c(F)c2-c2cc(=O)n(C(CC3CC3)c3ncc(-c4ccc(F)cc4)[nH]3)cc21 (single isomer, unassigned)
RECORDED_VALUE: 1.13 µM

COMPOUND: O=C1NC2(CC2)Cc2ccc(Cl)c(F)c2-c2cc(=O)n3c(c21)CC[C@H]3c1ncc(-c2ccc3snnc3c2)[nH]1 (stereo in doubt)
RECORDED_VALUE: 1.18 µM

COMPOUND: Cn1nncc1-c1cnc([C@H]2CCc3c4c(cc(=O)n32)-c2c(ccc(Cl)c2F)CCNC4=O)[nH]1 (stereo in doubt)
RECORDED_VALUE: 5.15 µM

COMPOUND: Nc1ccc(-c2cnc([C@@H]3CCc4c5c(cc(=O)n43)-c3c(ccc(Cl)c3F)CCNC5=O)[nH]2)c(Cl)n1 (stereo in doubt)
RECORDED_VALUE: 2.59 µM

COMPOUND: O=C1NC2(CC2)Cc2ccc(Cl)c(F)c2-c2cc(=O)n3c(c21)CC[C@H]3c1ncc(-c2ccn3cnnc3c2)[nH]1 (stereo in doubt)
RECORDED_VALUE: 5.82 µM

COMPOUND: Cn1ncc(-c2cnc(C(CC3CC3)n3cc4c(cc3=O)-c3c(ccc(Cl)c3F)CC3(CC3)NC4=O)[nH]2)cc1=O (single isomer, unassigned) [Compound 59]
RECORDED_VALUE: 4.39 µM

COMPOUND: CN1C(=O)c2c(cc(=O)n3c2CC[C@@H]3c2ncc(-c3ccc(N)nc3F)[nH]2)-c2c(ccc(Cl)c2F)CC12CC2 (stereo in doubt)
RECORDED_VALUE: > 10 µM

COMPOUND: O=C1NC2(CC2)Cc2ccc(Cl)c(F)c2-c2cc(=O)n3c(c21)CC[C@H]3c1ncc(-c2ccc3[nH]ccc3c2)[nH]1 (single isomer, unassigned)
RECORDED_VALUE: 1.07 µM

COMPOUND: Nc1ccc(-c2cnc(C3CCc4c5c(cc(=O)n43)-c3c(ccc(Cl)c3F)-c3ccncc3NC5=O)[nH]2)c(F)n1 (single isomer, unassigned)
RECORDED_VALUE: ~5.75 µM

COMPOUND: Nc1ccc(-c2cnc([C@H]3CCc4c5c(cc(=O)n43)-c3c(ccc(Cl)c3F)CC3(CC3)N(CCO)C5=O)[nH]2)c(F)n1 (single isomer, unassigned)
RECORDED_VALUE: 1.85 µM

COMPOUND: Nc1ccc(-c2cnc([C@@H]3CCc4c5c(cc(=O)n43)-c3c(ccc(Cl)c3F)CCNC5=O)[nH]2)c(F)n1 (stereo in doubt)
RECORDED_VALUE: 9.15 µM

COMPOUND: O=C1NC2(CC2)Cc2ccc(Cl)c(F)c2-c2cc(=O)n3c(c21)CC[C@@H]3c1ncc(-c2ccc3[nH]ccc3c2)[nH]1 (single isomer, unassigned) [Compound 17]
RECORDED_VALUE: 1.59 µM

COMPOUND: O=C1NC2(CC2)Cc2ccc(Cl)c(F)c2-c2cc(=O)n3c(c21)CC[C@@H]3c1ncc(-c2ccc3[nH]ccc3c2)[nH]1 (single isomer, unassigned) [Compound 14]
RECORDED_VALUE: 2.03 µM

COMPOUND: O=C1NC2(CC2)Cc2ccc(Cl)c(F)c2-c2cc(=O)n(C(CC3CC3)c3ncc(-c4cc[n+]([O-])cc4)[nH]3)cc21 (single isomer, unassigned)
RECORDED_VALUE: 9.69 µM

COMPOUND: Nc1ccc(-c2cnc(C3CCc4c5c(cc(=O)n43)-c3c(ccc(Cl)c3F)-c3ccccc3NC5=O)[nH]2)c(F)n1 (single isomer, unassigned)
RECORDED_VALUE: > 10 µM

COMPOUND: Cn1ccc(-c2cnc(C(CC3CC3)n3cc4c(cc3=O)-c3c(ccc(Cl)c3F)CC3(CC3)NC4=O)[nH]2)cc1=O (single isomer, unassigned)
RECORDED_VALUE: 2.24 µM

COMPOUND: O=C1NC2(CC2)Cc2ccc(Cl)c(F)c2-c2cc(=O)n3c(c21)CC[C@H]3c1ncc(-c2ccn3c(Br)cnc3c2)[nH]1 (single isomer, unassigned)
RECORDED_VALUE: > 10 µM

Where these numbers come from: patent US11897880B2
